test system: EKVX NSCLC; assay: NCI tumour cell line growth inhibition, 48 h
Overview of recorded TGI for various compounds

Reference set, count: 5
>>> recordedvalue("CC(=O)O[C@H]1C(=O)[C@@]2(C)[C@H]([C@H](OC(=O)c3ccc(F)cc3)[C@]3(O)C[C@H](OC(=O)[C@H](O)[C@@H](NC(=O)c4ccccc4)c4ccccc4)C(C)=C1C3(C)C)[C@]1(OC(C)=O)CO[C@@H]1C[C@@H]2O")
"> 25 µM"
>>> recordedvalue("COC(C)(C)[C@@H](O)[C@H]1C[C@H](C)[C@@]2(CC[C@]3(C)[C@@H]2CC[C@@H]2[C@@]4(C)CC[C@@H](OC(C)=O)C(C)(C)[C@@H]4C[C@@H](OC4OC(COC(C)=O)C(O)C(O)C4O)[C@]23C)O1 (some centres not stated)")
"19.5 µM"
>>> recordedvalue("NC(=O)C(=O)CC(=O)c1ccccc1NC1=CC(=O)C(=O)c2ccccc21")
"> 100 µM"
>>> recordedvalue("COc1cc(-c2cc(=O)c3cc4c(=O)cc(-c5cc(OC)c(OC)c(OC)c5)oc4cc3o2)cc(OC)c1OC")
"> 100 µM"
>>> recordedvalue("CCNC(=O)/C(=C/c1ccc(OC)cc1)c1cc(OC)c(OC)c(OC)c1")
"> 100 µM"

Observed TGI, EKVX NSCLC, Cc1[nH]c2ccccc2c1C1Cc2ccccc2N1C(=O)C#Cc1ccc([N+](=O)[O-])cc1 (configuration not stated) : > 100 µM

Observed TGI, EKVX NSCLC, O=C1c2ccccc2-c2c1c1ccccc1c(=O)n2CCN1CCNCC1 : 26.4 µM

Observed TGI, EKVX NSCLC, CCN1CCCC(NCc2c3ccccc3c(CNC3CCCN(CC)C3)c3ccccc23)C1 (configuration not stated) : 35.9 µM

Observed TGI, EKVX NSCLC, O=C(/C=C/c1ccccc1)c1ccccc1 : > 10 µM

Observed TGI, EKVX NSCLC, O=C(/C(=C\c1c(-c2ccccc2)[nH]c2ccccc12)S(=O)(=O)c1ccccc1)c1ccccc1 : > 100 µM

Observed TGI, EKVX NSCLC, CCC1=CC2CN3Cn4c(c(COCc5c6n(c7ccccc57)CN5CC7C=C(CC)C5C6(C(=O)OC)C7)c5ccccc54)C(C(=O)OC)(C2)C13 : > 100 µM

Observed TGI, EKVX NSCLC, O=C(CN(c1ccccc1)c1ccccc1)N1c2ccccc2C2C=CC=CC21 (configuration not stated) : > 59.4 µM

###

tested on: OVCAR-8 ovarian; test: NCI tumour cell line growth inhibition, 48 h
Overview of recorded TGI for various compounds

Reference set, count: 4
>>> recordedvalue("COC(=O)C1C(O)C(C(=O)OC)C(C)N(C)C1C (stereo unspecified)")
"> 100 µM"
>>> recordedvalue("Nc1nc(-c2ccc(Cl)c([N+](=O)[O-])c2)cs1")
"> 100 µM"
>>> recordedvalue("COc1ccc(-c2nn(-c3cccc(Cl)c3)cc2-c2cc(-c3ccccc3)[nH]c(=O)c2C#N)cc1")
"> 50 µM"
>>> recordedvalue("COc1ccc(-c2c3c([nH]c(=S)c2C#N)CC(C)(C)CC3=O)cc1")
"> 100 µM"

Now consider the entry below.
Entry NNCCc1ccc(NC(=O)CCCc2ccc(C(=O)Nc3ccccc3N)cc2)cc1 ; TGI = > 100 µM
